Just for reference, patent US7022815 is where these values come from.

Target: T1, human PTH-1 receptor (human, UniProt Q03431 27-593)
T1 sequence (looked up): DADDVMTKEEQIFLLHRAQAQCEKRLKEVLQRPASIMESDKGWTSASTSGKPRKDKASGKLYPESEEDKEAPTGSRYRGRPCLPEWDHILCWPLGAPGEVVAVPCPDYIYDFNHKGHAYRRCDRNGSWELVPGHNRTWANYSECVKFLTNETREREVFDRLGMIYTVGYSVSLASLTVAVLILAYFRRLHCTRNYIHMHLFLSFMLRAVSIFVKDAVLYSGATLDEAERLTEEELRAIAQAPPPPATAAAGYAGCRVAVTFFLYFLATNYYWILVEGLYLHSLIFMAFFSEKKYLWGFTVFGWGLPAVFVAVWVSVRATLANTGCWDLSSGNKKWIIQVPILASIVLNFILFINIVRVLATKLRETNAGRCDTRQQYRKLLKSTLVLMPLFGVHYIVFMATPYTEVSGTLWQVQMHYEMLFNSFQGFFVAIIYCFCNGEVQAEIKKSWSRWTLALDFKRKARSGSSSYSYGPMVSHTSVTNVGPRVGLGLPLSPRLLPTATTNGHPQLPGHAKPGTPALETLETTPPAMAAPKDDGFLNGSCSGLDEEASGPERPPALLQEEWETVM
Experiment: cell-based or functional assay
Non-standard residues stand in square brackets, D forms with d. No end group written: not given here. Nle = CCCC[C@H](N)C(=O)O
outcome measure: cAMP Emax, COS-7 cells with WT hPTH-1 receptor
Enter the number, and then the unit.

Qu. State its cAMP Emax, COS-7 cells with WT hPTH-1 receptor: AVSEIQLMHNLGKH-NH2 [native rPTH(1-14)]
Ans. 221 picomole/well

Qu. Supply measured cAMP Emax, COS-7 cells with WT hPTH-1 receptor of AVAEIQLMHARAKH-NH2 [[A3, A10, R11, A12]rPTH(1-14)] in your reply.
Ans. 243 picomole/well

Qu. Give me measured cAMP Emax, COS-7 cells with WT hPTH-1 receptor, please, for this binder: AVAEIQLMHAR-NH2 [[A3, A10, R11]rPTH(1-11)]
Ans. 238 picomole/well

Qu. Read the entry AVSEIQL[Nle]HNLGKHLASVER[Nle]QWLRKKLQDVHNY-NH2 [[Nle^8,21,Tyr^34]-rPTH(1-34)NH2] and write its reported cAMP Emax, COS-7 cells with WT hPTH-1 receptor.
Ans. 226 picomole/well

Qu. State its cAMP Emax, COS-7 cells with WT hPTH-1 receptor: SVSEIQLMHNLGKHLNSMERVEWLRKKLQDVHNY-NH2 [[Tyr^34]human (h)PTH(1-34)NH2]
Ans. 226 picomole/well

Qu. Kindly indicate its recorded cAMP Emax, COS-7 cells with WT hPTH-1 receptor. Item: AVAEIQLMHARAKHLNSMERVEWLRKKLQDVHNY-NH2 (also called peptide #7; #7) [[A1, A3, A10, R11, A12, Y34]hPTH(1-34)]
Ans. 222 picomole/well
